experiment: Caco-2 permeability assay (CacoReady kit); format: in vitro ADME; details: human
OBSERVABLE: Papp

Here is how some compounds turned out for Papp.
| COMPOUND | RESULT |
| --- | --- |
| CCNC(=O)C(=O)CC[C@H](NC(=O)c1cnc(NC(C)=O)s1)C(=O)Nc1cccn(CC(=O)NC23CC(C2)C3)c1=O [Compound I-110] | < 1 ×10⁻⁶ cm/s |
| CCNC(=O)C(=O)CC[C@H](NC(=O)c1cnsn1)C(=O)Nc1cccn(CC23CC4CC(CC(Br)(C4)C2)C3)c1=O [Compound I-83] | < 1 ×10⁻⁶ cm/s |
| CCNC(=O)C(=O)CC[C@H](NC(=O)c1sc(C(F)(F)F)nc1Br)C(=O)Nc1cccn(CC(=O)NC2C3CC4CC(C3)CC2C4)c1=O (stereo partly shown) [Compound I-41] | 1 to 10 ×10⁻⁶ cm/s |
| CCNC(=O)C(=O)CC[C@H](NC(=O)c1nccn1C)C(=O)Nc1cccn(CC(=O)NC23CC4CC(CC(CC)(C4)C2)C3)c1=O [Compound I-16] | < 1 ×10⁻⁶ cm/s |
| CCNC(=O)C(=O)CC[C@H](NC(=O)c1cn[nH]n1)C(=O)Nc1cccn(CC(=O)NC2CC3CCC2CC3)c1=O (stereo partly shown) [Compound I-74] | < 1 ×10⁻⁶ cm/s |
| CCNC(=O)C(=O)CC[C@H](NC(=O)c1cc2ccc(N(C)C)cc2o1)C(=O)Nc1cccn(CC(=O)NC23CC(C2)C3)c1=O [Compound I-109] | < 1 ×10⁻⁶ cm/s |
| CCNC(=O)C(=O)CC[C@H](NC(=O)c1cc(Br)sc1Br)C(=O)Nc1cccn(CC(=O)NC2C3CC4CC(C3)CC2C4)c1=O (stereo partly shown) [Compound I-47] | 1 to 10 ×10⁻⁶ cm/s |
| CCNC(=O)C(=O)CC[C@H](NC(=O)c1cncn1C)C(=O)Nc1cccn(CC(=O)N(C)C23CC4CC(CC(C4)C2)C3)c1=O [Compound I-3] | < 1 ×10⁻⁶ cm/s |
| CCNC(=O)C(=O)CC[C@H](NC(=O)c1cnnn1C)C(=O)Nc1cccn(CC(=O)NC2C3CC4CC(C3)CC2C4)c1=O (stereo partly shown) [Compound I-56] | 1 to 10 ×10⁻⁶ cm/s |

Please turn your attention to the following entry.
Challenge: # get_value(readout='Papp', item= CCNC(=O)C(=O)CC[C@H](NC(=O)c1cc(Cl)sc1Cl)C(=O)Nc1cccn(CC(=O)NC2C3CC4CC(C3)CC2C4)c1=O (stereo partly shown) [Compound I-46] )
Response given: 1 to 10 ×10⁻⁶ cm/s

###

experiment: Caco-2 permeability assay (CacoReady kit); type: in vitro ADME; conditions: human
OBSERVABLE: Papp

| COMPOUND | OBSERVABLE | RESULT |
| --- | --- | --- |
| CCNC(=O)C(=O)CC[C@H](NC(=O)c1coc(S(N)(=O)=O)c1)C(=O)Nc1cccn(CC(=O)NC2C3CC4CC2CC(NC(C)=O)(C4)C3)c1=O (stereo partly shown) [Compound I-112] | Papp | < 1 ×10⁻⁶ cm/s |
| CCNC(=O)C(=O)CC[C@H](NC(=O)c1cc2c(F)c(F)ccc2[nH]1)C(=O)Nc1cccn(CC(=O)NC2C3CC4CC(C3)CC2C4)c1=O (stereo partly shown) [Compound I-36] | Papp | 1 to 10 ×10⁻⁶ cm/s |
| CCNC(=O)C(=O)CC[C@H](NC(=O)c1cc2ccccc2nn1)C(=O)Nc1cccn(CC(=O)NC23CC(C2)C3)c1=O [Compound I-100] | Papp | < 1 ×10⁻⁶ cm/s |

Please turn your attention to the following entry.
Challenge: # get_value(readout='Papp', item= CCNC(=O)C(=O)CC[C@H](NC(=O)c1cncn1C)C(=O)Nc1cccn(CC(=O)NC23CC4CC(C2)CC(C(=O)OC)(C4)C3)c1=O [Compound I-11] )
Response given: < 1 ×10⁻⁶ cm/s
